- targetUnderTest: sigma-2 receptor (Cavia porcellus)
- Construct: of guinea pig brain membranes in a total volume of 0.5 ml; from tissue; host or cells: guinea pig brain membranes
- methodSummary: Sigma-2 binding assay ([^3 H]DTG in the presence of (+)pentazocine)
- Design: species or system guinea pig
- conditions: read-out: Sigma 2 IC50; about 2 nM [^3 H]DTG with 200 nM (+)pentazocine, guinea pig brain membranes, pH 7.4, 30 minutes room temperature
measuredQuantity: pIC50
Give bare numbers, as −log10 of the molar value.

**Q:** Value wanted: pIC50 (sigma-2 receptor (Cavia porcellus)) of entry c1ccc2c(c1)C1CC2C(N2CCCCC2)C1 (stereo not shown)
**A:** 8.28

====

- targetUnderTest: UniProt Q60492
- methodSummary: biochemical
measuredQuantity: Ki (nM)
Numbers only, in nM.

Examples with answers:
molecule | unitAbbreviation | Ki
c1ccc(Cc2cccc(CN3CCCCC3)c2)cc1 | nM | 5.44
O=[N+]([O-])c1ccc(CCCCCN2CCCCC2)cc1 | nM | 0.16
CN1CCC(CCCCCc2ccccc2)CC1 | nM | 0.6
CN1CCN(CCCCCc2ccccc2)CC1 | nM | 1.44
CN1CCC(=CCCCCc2ccccc2)CC1 | nM | 9.87

Hi! Can you tell me Ki for each of these molecules?
1. c1ccc(CCCCCN2CCCC2)cc1
2. CCN(CC)CCCCCc1ccccc1
3. CCN(CC)CCCCC(c1ccccc1)c1ccccc1
4. CC(Cc1ccccc1)NCCCCc1ccccc1 (stereo not shown)
5. c1ccc(CCNCCCCC(c2ccccc2)c2ccccc2)cc1

**A:**
0.76
6.01
1.42
7.38
0.68

Kindly give each listed record's Ki.
1. c1ccc(CCCCCN2CCCCC2Cc2ccccc2)cc1 (stereo not shown)
2. CN(CCCC=C(c1ccccc1)c1ccccc1)CCc1ccccc1
3. CN(CCCCCc1cccc(C(F)(F)F)c1)CCc1ccccc1
4. c1ccc(CNCCCN2CCN(c3ccccc3)CC2)cc1
5. CC(Cc1ccccc1)NCCCCCc1ccccc1 (stereo not shown)
6. CN(CCCCCc1ccccc1)CCc1cccc(C(F)(F)F)c1

**A:**
[0.36, 0.9, 0.59, 1.96, 0.54, 1.74]

====

- targetUnderTest: sigma receptor (sigma-1 and sigma-2 sites)
- methodSummary: Sigma receptor binding assay ([^3 H]DTG, guinea pig brain membrane homogenates)
- conditions: Example 3 table; tested by the [^3 H]DTG assay of Example 2
The label is yes (1) for IC50 below 4 nM and no (0) for IC50 equal to or exceeding 4 nM.

Worked examples follow.
compound | cat
c1ccc(CCCCCNCCc2ccccc2)cc1 | yes (1)
c1ccc(CCCCCN2CCCC2)cc1 | no (0)
CN(CCCCCc1ccccc1)CCc1ccccc1 | yes (1)
c1cc2c(cc1CCCCCN1CCCCC1)OCO2 [drawing 25] | yes (1)

Turning to the following compound.
**Q:** Bench note: check whether CNC(CCCCCc1ccccc1)CCCCCc1ccccc1 shows IC50 below 4 nM
**A:** yes (1)

====

Provide the reported log10 of IC50 of each item.
- targetUnderTest: sigma-2 receptor (Cavia porcellus)
- Construct: of guinea pig brain membranes in a total volume of 0.5 ml; from tissue; host or cells: guinea pig brain membranes
- Sequence (H0V073 1-176): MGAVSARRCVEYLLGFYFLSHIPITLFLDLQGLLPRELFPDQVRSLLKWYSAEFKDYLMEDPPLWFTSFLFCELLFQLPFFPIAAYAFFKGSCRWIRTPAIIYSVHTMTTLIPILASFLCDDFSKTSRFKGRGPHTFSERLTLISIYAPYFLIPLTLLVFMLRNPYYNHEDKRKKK
- methodSummary: Sigma-2 binding assay ([^3 H]DTG in the presence of (+)pentazocine)
- Design: species or system guinea pig
- conditions: read-out: Sigma 2 IC50
Field: value | Transform: log10 | Quantity: IC50 | Unit: nM

Record log10 of IC50 per entry; entries follow.
1. CN1CCC(CCCCCc2ccccc2)CC1
2. CN(CCCCC(O)c1cccc(C(F)(F)F)c1)CCc1ccccc1 (stereo not drawn)

**A:**
[1.99, 0.48]

List the reported log10 of IC50 of each molecule below.
1. CCN(CC)CCCCCc1ccccc1
2. c1ccc(CCCCCN2CCCCC2c2ccccc2)cc1 (stereo not drawn)

**A:**
1: 1.95; 2: 0.67

Below are some molecules; for each one, tell me its log10 of IC50.
1. c1ccc(Cc2cccc(CN3CCCCC3)c2)cc1
2. CN(CCCCCc1ccccc1)CCc1cccc(C(F)(F)F)c1
3. CN(CCCCCc1cccc(C(F)(F)F)c1)CCc1ccccc1
4. O=[N+]([O-])c1ccc(CCCCCN2CCCCC2)cc1

**A:**
[1.99, 1.16, 0.55, 1.00]

Dear colleague, could you please provide log10 of IC50 for the molecules listed below?
1. CN1CCC(=CCCCCc2ccccc2)CC1
2. c1ccc(CCNCCCCC(c2ccccc2)c2ccccc2)cc1
3. c1ccc(CCCCCN2CCCCC2Cc2ccccc2)cc1 (stereo not drawn)
4. c1cc2c(cc1CCCCCN1CCCCC1)OCO2 [drawing 38]
5. CN(CCCC=C(c1ccccc1)c1ccccc1)CCc1ccccc1
6. c1ccc(CCCCCN2CCCC(Cc3ccccc3)C2)cc1 (stereo not drawn)
7. CN(CCCCC(c1ccccc1)c1ccccc1)CCc1ccccc1

**A:**
[2.41, 2.00, 1.02, 1.80, 1.61, 0.62, 1.50]

Record log10 of IC50 for all entries; do not skip any.
1. CN1CCN(CCCCCc2ccccc2)CC1
2. CCN(CC)CCCCC(c1ccccc1)c1ccccc1
3. c1ccc(CCCCCN2CCCC2)cc1
4. C(CCCNCCc1ccccc1)=C(c1ccccc1)c1ccccc1
5. c1ccc(CNCCCN2CCN(c3ccccc3)CC2)cc1

**A:**
1.90
1.71
1.84
2.15
2.00

Would you mind giving log10 of IC50 for every molecule in the list below?
1. CC1CCN(CCCC=C(c2ccccc2)c2ccccc2)CC1
2. CN(CCCCC(=O)c1cccc(C(F)(F)F)c1)CCc1ccccc1
3. CN(CCCCCc1ccccc1)CCc1ccccc1
4. CC1CCN(CCCCCc2ccccc2)CC1

**A:**
1.40
0.10
0.70
0.85

====

For each of the molecules below, state its pKi.
- targetUnderTest: sigma-1 receptor (Cavia porcellus, UniProt Q60492)
- Sequence (Q60492 whole entry): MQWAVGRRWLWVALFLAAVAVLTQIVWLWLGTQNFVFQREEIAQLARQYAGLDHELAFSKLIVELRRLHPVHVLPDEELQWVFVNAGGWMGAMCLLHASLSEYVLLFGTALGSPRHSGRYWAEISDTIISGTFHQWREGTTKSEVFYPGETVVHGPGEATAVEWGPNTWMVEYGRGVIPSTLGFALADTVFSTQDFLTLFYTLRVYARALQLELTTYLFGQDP
- methodSummary: biochemical
Give bare numbers, as −log10 of the molar value.

Recorded pKi, per entry:
molecule | measuredQuantity | valueObserved
c1ccc(CCCCCN2CCCC(Cc3ccccc3)C2)cc1 (stereo not drawn) | pKi | 10.15
c1cc2c(cc1CCCCCN1CCCCC1)OCO2 [drawing 38] | pKi | 9.49
CN(CCCCC(O)c1cccc(C(F)(F)F)c1)CCc1ccccc1 (stereo not drawn) | pKi | 9.02
CC1CCN(CCCCCc2ccccc2)CC1 | pKi | 10.10
CN(CCCCC(=O)c1cccc(C(F)(F)F)c1)CCc1ccccc1 | pKi | 9.15

Now for another entry.
**Q:** Entry under review: c1ccc(CCCCCN2CCCCC2c2ccccc2)cc1 (stereo not drawn) . Reported pKi?
**A:** 9.80

Numbers sourced from patent US6087346A.
